Experiment: in vivo
Set-up: species or system Beagle dogs
Settings: both sexes, beagle, dog, in vivo, Average tissue concentration, Heart
Description: The test article will be administered to 8 Beagle dogs by intravenous infusion over two hours (Part A) or eight hours (Part B) as shown in Table 6. Multiple samples of tissue weighing approximately 1 gram were removed and snap frozen in the presence or absence of phosphoric acid (H3PO4). For all tissue samples, the levels of curcumin and THC were determined using a method developed by the Bioanalytical Department at Nucro-Technics. […]
measurement-label: concentration at 15 min
State the result as a value with its unit after it.

response.value for COc1cc(/C=C/C(=O)CC(=O)/C=C/c2ccc(O)c(OC)c2)ccc1O [Curcumin, reference compound] (field: concentration at 15 min) = 0.47 ng/g
